target-or-system: FLuc-C-HiBiT (firefly luciferase) (Photinus pyralis, UniProt P08659, form not given/L550V)
Sequence (P08659 2-550 L550V, form open): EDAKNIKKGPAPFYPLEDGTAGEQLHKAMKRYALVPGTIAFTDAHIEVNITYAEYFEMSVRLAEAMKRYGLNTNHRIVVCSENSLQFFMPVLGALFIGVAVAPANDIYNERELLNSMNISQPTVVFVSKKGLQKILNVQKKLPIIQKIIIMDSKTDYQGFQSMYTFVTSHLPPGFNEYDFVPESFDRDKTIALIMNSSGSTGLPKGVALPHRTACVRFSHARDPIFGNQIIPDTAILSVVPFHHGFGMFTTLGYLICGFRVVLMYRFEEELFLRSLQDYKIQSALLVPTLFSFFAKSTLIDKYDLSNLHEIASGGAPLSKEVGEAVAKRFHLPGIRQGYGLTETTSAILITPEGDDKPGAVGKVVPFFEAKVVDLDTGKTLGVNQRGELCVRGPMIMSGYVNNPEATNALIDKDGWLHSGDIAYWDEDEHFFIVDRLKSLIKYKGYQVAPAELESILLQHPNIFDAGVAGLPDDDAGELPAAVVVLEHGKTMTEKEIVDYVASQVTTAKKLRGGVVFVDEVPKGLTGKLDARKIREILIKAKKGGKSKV
measurement-notes: Firefly luciferase (FLuc) enzymatic luminescence assay, FLuc-C-HiBiT
Assay type: biochemical
Parameters: key: % normalized; no enzyme control = 100% inhibition, DMSO = 0
experimental-parameters: sheet Figure 1g (values as in Figure 1f); normalized activity; Log [Compound], M -6.87
Assign labels as follows, please: TRUE for FLuc Enzyme below -20; FALSE for FLuc Enzyme equal to or exceeding -20.

# count of solved cases: 4
{"columns": ["compound", "class-assignment"],
 "data": [
  ["CC(CNC(=O)C1CCN(C(=O)c2ncn3c2COC(c2ccccc2)C3)CC1)c1ccccc1 (centres unmarked)", "FALSE"],
  ["CNC(=O)c1cccc2c1CCN2C(=O)Nc1ccc(C)cc1", "FALSE"],
  ["Fc1ccc(-c2cn3cc(Cc4ccccc4)sc3n2)cc1", "TRUE"],
  ["O=C(O)CCSc1nnc(-c2ccc(Cl)cc2Cl)o1", "FALSE"]
]}

[in] Hello, is FLuc Enzyme of the following compound strictly smaller than -20? Cc1ccc(-n2ncc3c(N4CCCCCC4)ncnc32)cc1
[out] TRUE

[in] I wonder whether O=C(O)c1cccc2c1CCN2C(=O)Nc1ccc(F)cc1 has FLuc Enzyme below -20. Can you tell?
[out] FALSE

[in] FLuc Enzyme strictly < -20 for this compound? COc1ccc(-c2nc(-c3ccc(C(=O)O)cc3)no2)cc1
[out] TRUE

[in] Hello, is FLuc Enzyme of the following compound strictly smaller than -20? CC1CCCN(c2ncnc3c2cnn3-c2ccccc2)C1 (centres unmarked)
[out] FALSE

----------
target-or-system: FLuc-C-HiBiT (Photinus pyralis)
Construct: firefly luciferase with C-terminal HiBiT tag, E. coli expressed
Sequence (P08659 whole entry, looked up): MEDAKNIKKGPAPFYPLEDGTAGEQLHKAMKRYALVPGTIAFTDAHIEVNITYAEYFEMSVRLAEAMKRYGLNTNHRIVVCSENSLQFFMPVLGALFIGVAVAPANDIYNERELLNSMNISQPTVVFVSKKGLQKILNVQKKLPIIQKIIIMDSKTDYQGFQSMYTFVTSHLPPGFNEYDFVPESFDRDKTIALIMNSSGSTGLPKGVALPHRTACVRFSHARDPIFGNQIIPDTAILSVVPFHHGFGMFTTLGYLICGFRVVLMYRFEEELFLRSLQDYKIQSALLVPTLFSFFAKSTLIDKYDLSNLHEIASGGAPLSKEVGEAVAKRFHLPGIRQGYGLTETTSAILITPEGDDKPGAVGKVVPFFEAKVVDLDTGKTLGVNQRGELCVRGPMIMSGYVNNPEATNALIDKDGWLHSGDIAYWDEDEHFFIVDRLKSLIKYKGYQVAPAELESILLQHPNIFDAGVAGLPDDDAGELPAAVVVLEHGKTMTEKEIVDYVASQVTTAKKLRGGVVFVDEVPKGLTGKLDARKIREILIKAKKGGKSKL
measurement-notes: biochemical
experimental-parameters: enzyme activity, 10 uM ATP; read-out: IC50 or SDR50 (mM) / FLuc E
measured-endpoint: IC50 (mM)
Record the value in mM, omitting the unit from your answer.

Input O=C(O)c1cccc2c1CCN2C(=O)c1ccc(F)cc1 [NCGC00432675-01] . Output IC50: 0.00176

For reference, reported IC50 for COc1ccc(-c2cc(N3CCCC(NC(=O)c4cccs4)C3)[nH]n2)cc1 (centres unmarked) [NCGC00437586-01] stands at 0.00989

For record Cc1nc2ccc(-c3nc(C4CCOC4)no3)cc2s1 (centres unmarked) [NCGC00446448-01] the listed IC50 is 0.0111

The molecule listed as O=C(Nc1ccc(Cl)cc1)C1CCN(C(=O)c2ncn3c2COC(c2ccccc2)C3)CC1 (centres unmarked) [NCGC00449917-01] has a reported IC50 of 0.00176

Entry CCCCNC(=O)c1cccc2c1CCN2C(=O)Nc1ccccc1 [NCGC00430146-01] ; IC50 = 0.00157

Form field IC50, entry CN1c2cc(C(=O)Nc3cccc(Cl)c3)ccc2C(=O)N2CCCCCC21 (centres unmarked) [NCGC00452209-01] : 0.0176

// IC50 lookup, molecule = OC1(CN2CCCCC2)CCN(c2nc3ccccc3s2)C1 (centres unmarked) [NCGC00437487-01] , result: 0.0157

----------
target-or-system: PKA-N-HiBiT (Homo sapiens, UniProt P17612)
measurement-notes: SDR assay, PKA-N-HiBiT
experimental-parameters: PKA-N-HiBiT qHTS, SDR assay; average maximal response
# note: boundary value 3 maps to n; SDR Ave Max Response below it maps to y

{"columns": ["molecule", "class-assignment"],
 "data": [
  ["COc1cc(NC(=O)c2cccc(-n3cc(NC(=O)Nc4cccc(C)c4)cn3)c2)cc(OC)c1OC [SR 3576]", "y"],
  ["O=[N+]([O-])O[C@H]1CO[C@H]2[C@@H]1OC[C@H]2O[N+](=O)[O-] [Isosorbide dinitrate]", "n"]
]}

[in] Say whether its SDR Ave Max Response is strictly beneath 3. Entry: C[C@@H]1CN(CC(=O)Nc2ccc3c(c2)Cc2cccc(-c4cc(=O)cc(N5CCOCC5)o4)c2S3)C[C@H](C)O1 [KU-60019]
[out] y

Ref: paper PMC12064818
